Reference source for all entries: ChEMBL document CHEMBL3045846

Target: Aldo-keto reductase family 1 member B1 (Bos taurus) (UniProt P16116)
Assay: Inhibition of Bos taurus (bovine) aldose reductase isolated from lens using DL-glyceraldehyde as substrate at 1.8 mM by UV-Vis spectrophotometric analysis
Below is a list of entries, each paired with its recorded inhibition value.
The answer should read as a number with its unit following.

Some solved entries appear below for comparison.
INSERT INTO results (substance_smiles, value) VALUES
  ('Cc1c(Cl)cc2c(=O)cc(-c3ccccc3)oc2c1I', '80%'),
  ('Cc1c(Cl)cc2c(=O)cc(-c3ccc(Cl)cc3Cl)oc2c1I', '80%'),
  ('O=c1cc(-c2ccc(Cl)cc2Cl)oc2c(I)cc(Cl)cc12', '80%'),
  ('O=c1cc(-c2ccccc2)oc2c(I)cc(Cl)cc12', '70%');

In the following, a different molecule is considered.
Report value: inhibition, system: Aldo-keto reductase family 1 member B1 (Bos taurus) (UniProt P16116), molecule: O=c1cc(-c2ccccc2Cl)oc2ccccc12
60%
